- tested_on: L-lactate dehydrogenase (Plasmodium falciparum (isolate CDC / Honduras))
- test_details: PfLDH activity inhibition – cell lysate, 3D7 strain, counter-screen for P. falciparum growth inhibition project (AID 2304);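 also: 0% = vehicle and 100% = reference inhibitor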
- run_parameters: P. falciparum 3D7 crude extract, LDH APAD/NBT absorbance; at 2 µM; active compounds read high
Listed molecules paired with reported inhibition
Expressed in %, but write only the number.

| molecule | unit_of_measurement | inhibition |
| --- | --- | --- |
| CCOC(=O)c1cncc(/C=C/c2cc(C)cnc2N)c1 | % | -4 |
| FC(F)(F)c1ccc2nc(-c3ccc(-c4ccc(CNCc5cnn(-c6ccccc6)n5)cc4)cc3)[nH]c2c1 | % | -1 |
| CC[C@H](C)CNC(=O)c1cncc(-c2cccc(CN(C)C3CCN(C)CC3)c2)c1 | % | 1 |
| COc1ccc2nccc(NC(=O)C3CCC(NCc4cnc(SC)c([N+](=O)[O-])c4)CC3)c2n1 (centres undefined) | % | 5 |
| CC1CCCN(c2ccc(NC(=O)c3cccs3)cc2[N+](=O)[O-])C1 (centres undefined) | % | -2 |

Q. For the molecule shown here, "CCCC(=O)c1cnc2c(OCCCc3cnc[nH]3)cccc2c1Nc1c(C)cccc1C" , give the reported inhibition.
A. 3

Q. For the molecule shown here, CCCC(C)Nc1nc(C)cc(N[C@@H](Cc2ccccc2)C(=O)NCc2ccc(C)cc2)n1 (some centres undefined) , give the reported inhibition.
A. 5

Q. For the molecule shown here, CN(C)c1ccc(CN2CCCCC(NC(=O)c3cc(-c4ccccc4F)cs3)C2)cc1 (centres undefined) , give the reported inhibition.
A. 5

Q. For the molecule shown here, "Cc1ccc(C(=O)Nc2cc(C(F)(F)F)cc(C(F)(F)F)c2)cc1[N+](=O)[O-]" , give the reported inhibition.
A. 1
